- Test system: ACHN
- experiment summary: NCI tumour cell line growth inhibition, 48 h
Counter-ions that a name gives are not always drawn. The source made the active and inactive calls. No stated cut-off is given here; in the data, active = GI50 up to about 1.1 µM and inactive = higher.
Reported GI50 values for a set of molecules

Field: example entries. Status: answers known.
CNCCC=C1c2ccccc2CCc2ccccc21 [NORTRIPTYLINE HYDROCHLORIDE]    16.6 µM (inactive)
CCCCCCCCCCCc1c(O)c(=O)c2c(oc3c(=O)c(CCCCCCCCCCC)c(O)c(=O)c3n2-c2ccc(N(C)C)cc2)c1=O    20.7 µM (inactive)
Cc1ccc(S(=O)(=O)OC2=C/C(=N\c3onc(C)c3C)c3ccccc3C2=O)cc1    26.3 µM (inactive)
CCOc1ccccc1NC(=O)C1=C(C)NC(C)=C(C(=O)Nc2ccccc2OCC)C1c1ccc(NC(C)=O)cc1    22.4 µM (inactive)
CN1CCN(C2=C(Cl)C(=O)c3c(O)ccc(O)c3C2=O)CC1    0.286 µM (active)
C#C[C@@H](OC(=O)c1ccc([N+](=O)[O-])cc1)[C@@H]1C[C@H]2O[C@@H]([C@H](C/C=C/CC)OC(=O)c3ccc([N+](=O)[O-])cc3)C[C@H]2O1    > 100 µM (inactive)

Q. Endpoint output: GI50 of Oc1c(CN2CCCC2)ccc2cccnc12 . Value?
A. 3.55 µM (inactive)

Q. Endpoint output: GI50 of COC(=O)c1ccc2c(c1)CC1(C2)Cc2cc3c(cc2C1)CCC3 . Value?
A. > 100 µM (inactive)
